Tgt: DGI-2 (Homo sapiens)
Construct: encompassed the entire DGI-2 open reading frame (ORF); His-tag of vector pIVEX2.3-MCS (inferred from the vector and from the reverse primer lacking a stop codon); made in house; host or cells: cell-free in vitro translation (Rapid Translation System RTS, Roche; E. coli lysate)
Sequence (Q15004 1-111): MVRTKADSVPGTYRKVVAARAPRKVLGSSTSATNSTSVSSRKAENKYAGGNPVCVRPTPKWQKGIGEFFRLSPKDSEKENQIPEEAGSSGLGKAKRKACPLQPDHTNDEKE
Test: ELISA analysis of phage on DGI-2 polypeptide (specific binding)
Study Conditions: ratio of specific binding to non-specific binding
Recorded Metric: DGI-2/LDH (OD)

>  <Biosequence>
VQSGRDLGGLLRGGTGTEASP (DGI-2-20F-PP-D3; listed as Escherichia coli)

>  <Recorded Metric>
DGI-2/LDH (OD)

>  <Val>
2.4

$$$$
>  <Biosequence>
RRGVCEIFTGWCVGQTNERP (DGI-2-20R-4-H626; listed as Escherichia coli)

>  <Recorded Metric>
DGI-2/LDH (OD)

>  <Val>
8.8

$$$$
>  <Biosequence>
PVYRVAMCRISVGCSAGAWF (DGI-2-20F-PP-C12; listed as Escherichia coli)

>  <Recorded Metric>
DGI-2/LDH (OD)

>  <Val>
2.9

$$$$
>  <Biosequence>
WAGSTDLWQLWSLWVKPELR (DGI-2-20F-3-B7; listed as Escherichia coli)

>  <Recorded Metric>
DGI-2/LDH (OD)

>  <Val>
1.6

$$$$
>  <Biosequence>
TFTRDVAGPAVSFVRLHSWN (DGI-2-20F-PP-A9; listed as Escherichia coli)

>  <Recorded Metric>
DGI-2/LDH (OD)

>  <Val>
2.3

$$$$
>  <Biosequence>
LLLPVRWRDAQPRSLLMEWI (DGI-2-20F-PP-F8; listed as Escherichia coli)

>  <Recorded Metric>
DGI-2/LDH (OD)

>  <Val>
1.9

$$$$
>  <Biosequence>
GWSDFVATGSWSGQVSAALN (DGI-2-20R-4-F120; listed as Escherichia coli)

>  <Recorded Metric>
DGI-2/LDH (OD)

>  <Val>
12.2

$$$$
>  <Biosequence>
RWSICRGLQYSIPGCAVEDLSDVMA (DGI-2-20C-4-H316; listed as Escherichia coli)

>  <Recorded Metric>
DGI-2/LDH (OD)

>  <Val>
3.9

$$$$
